Where do these numbers come from? They come from paper PMC10267570.

Target: CYP51Dt (D. transversa sterol 14α-demethylase)
Construct: C-terminal hexa-histidine tag
Test: UV–visible difference spectroscopy titration (type I spectrum) of purified P450; also turnover with CPRDt/NADPH by GC–MS
pKd: −log10 of the molar value.
Below, each of the compounds is paired with its reported pKd value.

Compound	pKd
C=C(CC[C@@H](C)[C@H]1CC[C@@]2(C)C3=C(CC[C@]12C)[C@@]1(C)CC[C@H](O)[C@@H](C)[C@@H]1CC3)C(C)C	6.10
CC(C)CCC[C@@H](C)[C@H]1CC[C@@]2(C)C3=C(CC[C@]12C)[C@@]1(C)CC[C@H](O)[C@@H](C)[C@@H]1CC3 [compound 19, 4-desmethyl-24,25-dihydrolanosterol]	5.62
